- TARGET ENTITY: PARP-1 F1+F2 (24-kDa DBD) (Homo sapiens, UniProt P09874 1-214)
- Sequence (P09874 1-214): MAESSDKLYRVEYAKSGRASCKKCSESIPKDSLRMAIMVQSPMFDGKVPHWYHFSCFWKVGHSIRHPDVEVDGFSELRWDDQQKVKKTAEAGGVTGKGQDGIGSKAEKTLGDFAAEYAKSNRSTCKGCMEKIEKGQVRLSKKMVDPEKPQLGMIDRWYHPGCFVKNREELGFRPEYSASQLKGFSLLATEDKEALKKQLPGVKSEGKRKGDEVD
- EXPERIMENT: fluorescence anisotropy; 0; 50 mM Tris-HCl pH 7.0, 150 uM ZnSO4, 4 mM DTT, 25 C; NaCl 0-200 mM (T2, as in cof; 10 nM DNA) or 25 mM (T3 mutants; 25 nM DNA)
- CONDITIONS: protein: recombinant; label: fluorescein-dT at T8; single-chain dumbbell, 18 bp with central nick, two tetraloops
PARAMETER: pKd
Units for pKd: none; it is -log10 of a concentration expressed in mol/L.

Requested field: pKd. Item: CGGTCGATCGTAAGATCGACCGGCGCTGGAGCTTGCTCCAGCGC (structured_DNA, 5'-phosphate) [44-nt nicked dumbbell, 5'-phosphate, fluorescein-dT]
8.24
